TARGET ENTITY: M3 muscarinic acetylcholine receptor (mAChR) (Homo sapiens)
Construct: expressed in transfected cells; host or cells: CHO-K1
Sequence (P20309 whole entry): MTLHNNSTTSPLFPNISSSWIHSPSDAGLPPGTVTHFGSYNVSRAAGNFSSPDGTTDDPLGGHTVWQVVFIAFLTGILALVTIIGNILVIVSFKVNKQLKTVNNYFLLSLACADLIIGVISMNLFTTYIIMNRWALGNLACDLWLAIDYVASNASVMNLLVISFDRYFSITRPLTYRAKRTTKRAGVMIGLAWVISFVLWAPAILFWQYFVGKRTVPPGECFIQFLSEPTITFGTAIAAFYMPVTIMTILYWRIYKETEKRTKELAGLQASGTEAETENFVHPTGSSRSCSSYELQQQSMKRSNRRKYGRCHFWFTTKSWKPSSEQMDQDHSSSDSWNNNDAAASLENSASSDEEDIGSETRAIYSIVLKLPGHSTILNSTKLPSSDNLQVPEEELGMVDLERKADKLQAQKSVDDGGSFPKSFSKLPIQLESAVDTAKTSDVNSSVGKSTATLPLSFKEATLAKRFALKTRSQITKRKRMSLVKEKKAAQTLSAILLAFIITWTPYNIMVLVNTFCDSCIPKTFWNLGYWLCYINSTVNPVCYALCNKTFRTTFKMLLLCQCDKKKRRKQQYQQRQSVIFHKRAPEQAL
PROTOCOL DESCRIPTION: FLIPR calcium assay (Fluo 8), M3-overexpressing CHO-K1 cells
Assay type: cell-based
TEST PARAMETERS: FLIPR calcium
Would you mind telling me the reported EC50 of each entry?

[Q] Give M3 muscarinic acetylcholine receptor (mAChR) (Homo sapiens) EC50 for the following molecule: CCOC(=O)N1CC2(CC[C@@H](N3CCN(c4cc(F)cnc4-c4ccnc(F)c4C)CC3)C2)C1 [Compound A114]
[A] > 10 µM

[Q] State, for M3 muscarinic acetylcholine receptor (mAChR) (Homo sapiens), measured EC50 of the molecule listed here: CCOC(=O)N1CC2(CC[C@H](N3CCN(c4cc(Cl)cnc4C4CCOCC4)CC3)C2)C1 (single isomer, unassigned) [Compound A16]
[A] > 10 µM

[Q] For M3 muscarinic acetylcholine receptor (mAChR) (Homo sapiens), give EC50 of the listed molecule: CCOC(=O)N1CC2(CC[C@@H](N3CCN(c4cc(F)cnc4-c4ccc(C(=O)NC)cc4)CC3)C2)C1 [Compound A103]
[A] > 10 µM

[Q] Find EC50 for CCOC(=O)N1CC2(CC[C@@H](N3CCN(c4cc(F)cnc4-c4ccc5c(c4)ncn5C)CC3)C2)C1 [Compound A131] on M3 muscarinic acetylcholine receptor (mAChR) (Homo sapiens) and write it down.
[A] > 10 µM

[Q] Check M3 muscarinic acetylcholine receptor (mAChR) (Homo sapiens) data and give EC50 for CCOC(=O)N1CC2(CC[C@@H](N3CCN(c4cc(F)cnc4-c4cc(C)cc(CO)c4)CC3)C2)C1 [Compound A141] .
[A] > 10 µM

[Q] Give EC50; test system M3 muscarinic acetylcholine receptor (mAChR) (Homo sapiens); molecule CCOC(=O)N1CC2(CC[C@@H](N3CCN(c4cc(F)cnc4-c4cnccc4C)CC3)C2)C1 [Compound A35]
[A] > 10 µM

[Q] Lab note: record EC50 of CCOC(=O)N1CC2(CC[C@@H](N3CCN(c4cc(F)cnc4-c4cccc(OC)n4)CC3)C2)C1 [Compound A133] tested on M3 muscarinic acetylcholine receptor (mAChR) (Homo sapiens).
[A] > 10 µM

###

TARGET ENTITY: M4 mAChR (Homo sapiens)
Construct: expressed in transfected cells; host or cells: CHO-K1
Sequence (P08173 whole entry): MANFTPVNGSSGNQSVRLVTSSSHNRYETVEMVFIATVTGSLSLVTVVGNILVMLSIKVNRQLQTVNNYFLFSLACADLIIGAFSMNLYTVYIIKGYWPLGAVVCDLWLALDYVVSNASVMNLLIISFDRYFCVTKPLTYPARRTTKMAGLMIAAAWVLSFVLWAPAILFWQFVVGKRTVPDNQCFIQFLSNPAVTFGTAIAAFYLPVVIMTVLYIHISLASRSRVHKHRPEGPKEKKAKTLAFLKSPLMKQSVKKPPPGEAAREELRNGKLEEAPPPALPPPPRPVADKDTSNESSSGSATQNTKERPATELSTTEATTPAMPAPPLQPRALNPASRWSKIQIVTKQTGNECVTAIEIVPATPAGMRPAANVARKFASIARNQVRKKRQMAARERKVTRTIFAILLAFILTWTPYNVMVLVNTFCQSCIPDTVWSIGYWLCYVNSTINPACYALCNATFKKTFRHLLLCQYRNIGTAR
PROTOCOL DESCRIPTION: cAMP TR-FRET assay with forskolin, M4-overexpressing CHO-K1 cells
Assay type: cell-based
TEST PARAMETERS: cAMP TR-FRET with forskolin
ENDPOINT LABEL: Emax

[Q] Tell me measured Emax for CCOC(=O)N1CC2(CC[C@@H](N3CCN(c4cc(F)cnc4-c4ccc(C#N)cc4OC)CC3)C2)C1 [Compound A94] please.
[A] 80 to 100%

[Q] Retrieve Emax measured for CCOC(=O)N1CC2(CC[C@@H](N3CCN(c4cc(F)cnc4-c4cnc5ccnn5c4)CC3)C2)C1 [Compound A100] and print it.
[A] 80 to 100%

[Q] Assign Emax to the following record: CCOC(=O)N1CC2(CC[C@@H](N3CCN(c4cc(F)cnc4-c4c(C)noc4C)CC3)C2)C1 [Compound A78]
[A] 80 to 100%

[Q] Identify measured Emax associated with CCOC(=O)N1CC2(CC[C@@H](N3CCN(c4cc(F)cnc4-c4cc(F)nc(F)c4)CC3)C2)C1 [Compound A119]
[A] 80 to 100%

[Q] Please give measured Emax of the following entry: CCOC(=O)N1CC2(CC[C@@H](N3CCN(c4cc(F)cnc4-c4cscn4)CC3)C2)C1 [Compound A8]
[A] 80 to 100%

[Q] Please report Emax for the following compound: CCOC(=O)N1CC2(CC[C@@H](N3CCN(c4cc(F)cnc4-c4cnc5c(cnn5C)c4)CC3)C2)C1 [Compound A129]
[A] 80 to 100%

[Q] Specify measured Emax for CCOC(=O)N1CC2(CC[C@@H](N3CCN(c4cc(F)cnc4-c4ccnn4CC)CC3)C2)C1 [Compound A93] .
[A] 80 to 100%

[Q] Look up Emax of CCOC(=O)N1CC2(CC[C@@H](N3CCC(c4cc(F)cnc4-n4cc(C)nn4)CC3)C2)C1 (single isomer, unassigned) [Compound A23] and report it.
[A] 80 to 100%

[Q] Provide only the value of recorded Emax for CCOC(=O)N1CC2(CC[C@@H](N3CCN(c4cc(F)cnc4-c4cnn(C5COC5)c4)CC3)C2)C1 [Compound A126]
[A] 80 to 100%

[Q] Hello, please tell me recorded Emax for this one: CCOC(=O)N1CC2(CC[C@@H](N3CCN(c4cc(F)cnc4-c4ccncc4F)CC3)C2)C1 [Compound A45]
[A] 80 to 100%

[Q] Read the entry CCOC(=O)N1CC2(CC[C@@H](N3CCN(c4cc(F)cnc4-c4cccc(O)c4)CC3)C2)C1 [Compound A32] and write its reported Emax.
[A] 80 to 100%

[Q] Provide Emax value for the following compound: CCOC(=O)N1CC2(CC[C@@H](N3CCN(c4cc(F)cnc4-c4ccc5cn(C)nc5c4)CC3)C2)C1 [Compound A68]
[A] 80 to 100%

[Q] Answer with the recorded Emax for the compound listed here: CCOC(=O)N1CC2(CC[C@@H](N3CCN(c4cc(F)cnc4-c4cnc(NC(C)C)nc4)CC3)C2)C1 [Compound A87]
[A] 80 to 100%

[Q] Give the measured Emax for CCOC(=O)N1CC2(CC[C@@H](N3CCN(c4cc(F)cnc4-c4ccccc4O)CC3)C2)C1 [Compound A104]
[A] 80 to 100%

[Q] Return reported Emax. Input compound: CCOC(=O)N1CC2(CC[C@@H](N3CCN(c4cc(F)cnc4-c4ccc5nccn5c4)CC3)C2)C1 [Compound A96]
[A] 80 to 100%

# credit: patent US20260098026A1
